Cited source: patent US11839613B2

Below is a list of entries, each paired with its recorded pIC50 value.
targetUnderTest: EP4 (Homo sapiens (Human))
Sequence (P35408 whole entry): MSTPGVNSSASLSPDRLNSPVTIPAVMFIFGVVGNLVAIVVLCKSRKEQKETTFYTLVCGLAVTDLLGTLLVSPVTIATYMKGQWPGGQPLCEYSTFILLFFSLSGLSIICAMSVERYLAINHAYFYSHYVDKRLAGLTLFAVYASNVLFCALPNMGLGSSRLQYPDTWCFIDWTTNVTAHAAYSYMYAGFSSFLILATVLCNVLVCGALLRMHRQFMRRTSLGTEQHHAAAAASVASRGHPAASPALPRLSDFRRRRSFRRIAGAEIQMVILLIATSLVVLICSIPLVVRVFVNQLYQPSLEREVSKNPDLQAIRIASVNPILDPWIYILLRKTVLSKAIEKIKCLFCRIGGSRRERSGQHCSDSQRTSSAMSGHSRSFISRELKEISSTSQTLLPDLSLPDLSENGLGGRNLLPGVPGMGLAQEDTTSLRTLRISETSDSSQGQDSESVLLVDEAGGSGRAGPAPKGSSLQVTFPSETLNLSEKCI
measurementNotes: hEP4 cAMP assay (BT549 breast cancer cells, HTRF cAMP)
Format: cell-based
testConditions: antagonistic activity, BT549 cells, PGE2 6 nM
pIC50: −log10 of the molar value.

{"columns": ["compoundStructureString", "pIC50"],
 "data": [
  ["CCc1cc(-c2cc(NCCc3cc(F)c4sccc4c3)ncn2)sc1C(=O)O", 7.42],
  ["CCOc1cc(-c2cc(NCCc3c(OCC)cc4ccccc4c3F)ncn2)ccc1C(=O)O", 7.24],
  ["CCOc1cc(-c2cc(NCCc3ccc4scc(C)c4c3)ncn2)ccc1OCC(=O)O", 5.92],
  ["CCCCOc1cc(-c2cc(NCCc3cc(F)c4sccc4c3)ncn2)ccc1C(=O)O", 6.65],
  ["CCOc1cc2ccccc2c(C)c1CCNc1cc(-c2ccc(C(=O)O)c(SC)c2)ncn1", 7.07],
  ["CCOc1cc(-c2cc(NCCc3cc(F)c4sccc4c3)ncn2)sc1CC(=O)O", 7.85],
  ["CCOc1cc(-c2cc(NCCc3ccc4scc(C)c4c3)ncn2)ccc1C(=O)O", 5.85]
]}

* * *

targetUnderTest: EP2 (Homo sapiens (Human), UniProt P43116)
Sequence (P43116 whole entry): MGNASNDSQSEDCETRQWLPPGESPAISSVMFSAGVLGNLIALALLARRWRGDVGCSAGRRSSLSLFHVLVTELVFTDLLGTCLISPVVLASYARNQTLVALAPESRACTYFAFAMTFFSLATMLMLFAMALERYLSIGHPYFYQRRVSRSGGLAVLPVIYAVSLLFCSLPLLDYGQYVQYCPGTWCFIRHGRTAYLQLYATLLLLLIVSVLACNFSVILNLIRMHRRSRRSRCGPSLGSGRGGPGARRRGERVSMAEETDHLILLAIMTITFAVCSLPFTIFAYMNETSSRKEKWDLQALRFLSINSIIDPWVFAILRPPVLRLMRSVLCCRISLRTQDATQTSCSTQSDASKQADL
measurementNotes: hEP2 cAMP assay (SF295 glioblastoma cells, HTRF cAMP)
Format: cell-based
testConditions: antagonistic activity
Below is a list of entries, each paired with its recorded log10 IC50 value.
measureName: log10 IC50 (log10 of the value in µM)

{"columns": ["compound", "log10 IC50"],
 "data": [
  ["CCOc1cc(-c2cc(NCCc3cc4cccnc4c(C)c3Cl)ncn2)sc1C(=O)O [Ex 87]", -0.87],
  ["CCOc1cc(-c2cc(NCCc3ccc4c(c3)OCC4)ncn2)sc1C(=O)O [Ex 67]", -0.96],
  ["O=C(O)c1ccc(-c2cc(NCCc3cc4ccccc4cc3OC(F)F)ncn2)cc1OC1CCC1 [Ex 180]", -0.16],
  ["CSc1cc(-c2cc(NCCc3cc(Cl)c4sccc4c3)ncn2)ccc1C(=O)O [Example 360]", -0.74],
  ["CCOc1cc2ccccc2cc1CCNc1cc(-c2ccc(C(=O)O)c(OC3CCC3)c2)ncn1 [Ex 171]", -0.92],
  ["CCOc1cc(-c2cc(NCCc3cc4c(cc3OC)CCCC4)ncn2)sc1C(=O)O [Ex 60]", -0.49],
  ["CCOc1cc(-c2cc(NCCc3ccc4c(c3)CCCO4)ncn2)sc1C(=O)O [Ex 56]", -0.72],
  ["CCCOc1cc(-c2cc(NCCc3ccc4ccccc4c3C)ncn2)ccc1C(=O)O [Ex 183]", -1.17],
  ["CCOc1cc(-c2cc(NCCc3c(C#N)cc4ccccc4c3C)ncn2)sc1C(=O)O [Ex 2]", -1.10]
]}

* * *

Below is a list of entries, each paired with its recorded pIC50 value.
targetUnderTest: EP2 (Homo sapiens (Human))
measurementNotes: hEP2 cAMP assay (SF295 glioblastoma cells, HTRF cAMP)
testConditions: antagonistic activity
pIC50: −log10 of the molar value.
measureName: pIC50

{"columns": ["compound", "reportedMeasurement"],
 "data": [
  ["CCOc1cc(-c2cc(NCCc3cc4c(Cl)ccnc4cc3C)ncn2)sc1C(=O)O [Ex 178]", 7.27],
  ["CCOc1cc(-c2cc(NCCc3cc4ccn(C)c4cc3F)ncn2)sc1C(=O)O [Ex 16]", 6.57],
  ["CCOc1cc(-c2cc(NCCc3ccc4sccc4c3)ncn2)ccc1OC(C)(C)C(=O)O [Ex 321]", 6.25],
  ["CSc1cc(-c2cc(NCCc3ccc4ccoc4c3)ncn2)ccc1C(=O)O [Ex 250]", 7.11],
  ["CCOc1cc(-c2cc(NCCc3cc4ccccc4cc3C)ncn2)sc1C(=O)O [Ex 40]", 6.64],
  ["Cc1c(CCNc2cc(-c3ccc(C(=O)O)c(OC(F)F)c3)ncn2)ccc2ccccc12 [Ex 83]", 7.15],
  ["CC(C)COc1cc(-c2cc(NCCc3cc(F)c4sccc4c3)ncn2)ccc1C(=O)O [Example 453]", 6.55],
  ["CCOc1cc(-c2cc(NCCc3cc4ccsc4cc3C)ncn2)ccc1C(=O)O [Ex 254]", 7.15],
  ["CCOc1cc(-c2cc(NCCc3ccc4ccccc4c3)ncn2)sc1C(=O)O [Ex 36]", 6.25]
]}
